target: TDP-43 (Homo sapiens, UniProt Q13148 1-414); test: RNA Bind-n-Seq with designed 260-mer pool; 25 mM Tris-HCl, 150 mM KCl, 3 mM MgCl2, BSA (printed 500 mg/mL), 20 units/mL SUPERase IN; pH not stated; 500 nM RNA pool, 1 h, 4 C; TDP-43 5, 50, 500 nM; high values mean tight binding; details: protein: recombinant; tags: SBP (GST cleaved off with PreScission; pGEX-GST-SBP)
Sequence (Q13148 whole entry): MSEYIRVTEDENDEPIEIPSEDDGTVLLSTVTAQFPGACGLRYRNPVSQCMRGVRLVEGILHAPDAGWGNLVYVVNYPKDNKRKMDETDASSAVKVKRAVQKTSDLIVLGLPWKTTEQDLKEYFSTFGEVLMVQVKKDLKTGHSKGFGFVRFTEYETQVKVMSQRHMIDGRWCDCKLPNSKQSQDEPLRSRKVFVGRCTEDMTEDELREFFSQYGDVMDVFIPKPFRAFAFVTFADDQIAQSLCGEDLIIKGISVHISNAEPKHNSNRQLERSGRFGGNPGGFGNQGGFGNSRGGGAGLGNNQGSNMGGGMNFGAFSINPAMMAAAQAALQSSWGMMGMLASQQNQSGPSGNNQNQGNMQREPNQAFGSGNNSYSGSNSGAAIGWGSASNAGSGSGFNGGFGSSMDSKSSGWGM
The full ranking holds about 9,900 sequences; the median of “r (bound/input frequency ratio)” is about 0.7, and the highest 2% start at about 6.5. The sample holds the highest values, similar sequences and a random draw of the others, so the mix is not that of the screen.
Reported values of binding signal for individual entries

A selection of reference data follows.
BINDER	binding signal
ENSMUSG00000029636.428|Wasf3 (ssRNA) RNA: GGGAGUUCUACAGUCCGACGAUCGCUUCGAUAUCCGCAUGCUAGUGGAUGGGUGGGUGGAUACAUGGAUGAGUGGAUGGGUGGAUUGGUGGGUGAGUGGAUAGGUGAAUGGAUGAUAGGUGGUGGAUGGUUGAGUGGGUGGAUUCAUGAUGGAUGGAUGGAUGGAUGGAUGGAUGGAUGGAUGGAUGAGUGGAUGGAUAAUAGGUUGAUGGGUGGAUAGGUAGAUGAGUGAAUAGAUAGAUAUAGAUCAGUGGGAGGAUUGGAAAGUAGGUGAAUGAAUGGAUGGCAGAUAGAUGGAUCAAUUCUCUUGCGGUCGCACUAGUGUGGAAUUCUCGGGUGUCAAGG	8.28 R (bound/input frequency ratio)
ENSMUSG00000043670.63|Diras1 (ssRNA) RNA: GGGAGUUCUACAGUCCGACGAUCGCUUCGAUAUCCGCAUGCUAAGACCUCUCCCUCUAUAUCUCUUUGCUCCCCCACCCCCAUUCUAUCUGCACCCCACAACCACACACUGGAGGUUUGAUCCCUGUGGAUCUGAAAACAGGGACCUGGCUAAGGAACUGCUCAUCCCAGUCAGGCCCAGAGAGGUUACCUUGCCUCUCCAUCUCUGUCCCUGUGUGCCCAGCCAUGCCCACUGUCCCUGUCCCUCACAUUCUAUCACUGUGACCUCUGGGGAGUGCCCAUUGACCUCAUCUUCCUUCACUAACUCUUGCGGUCGCACUAGUGUGGAAUUCUCGGGUGUCAAGG	2.02 R (bound/input frequency ratio)
ENSMUSG00000028439.22|Fam219a|136:142 (ssRNA) RNA: GGGAGUUCUACAGUCCGACGAUCGCUUCGAUAUCCGCAUGCUACGCUGACCUGGGCCCGGUGGGAUGCAGCAGGAGAGACCCCUACCCUGCUGGUCCACUGGUCCCCAGCCCCGCGCCUCUUAGAGCCGCCAACCUCGUAACAGUCAUUGCUUCCUCCUAUGGUAGGACGUGUACCUCACACACAUCAAGGAGCCGGAGAAACCAAAACCGGGUCUGUCUCCAGCCCCGGGGCUGAGGAGGGGUGGGCACUGUUUGUUCGGUUACUUGGGGGGAACCACACCCAAGCACCCUGCCACCUCUCCCUCUUGCGGUCGCACUAGUGUGGAAUUCUCGGGUGUCAAGG	0.559 R (bound/input frequency ratio)

Query binder follows.
[in] Looking for the measured binding signal of ENSMUSG00000029028.201|Lrrc47 (ssRNA) RNA: GGGAGUUCUACAGUCCGACGAUCGCUUCGAUAUCCGCAUGCUAAGCACACAGCUGCCAUCCCUCGAGCCACAGUGCCUGGUCCUAAGGACCCAGCAGCUGCACAGAGGACUUGGUGGCCCCGUGCCUUGCCAUCUGGCUGAGAAGAGAACCAGACCCUCAGCCUUCCCCCUCGACACCUUCUCGUUGGUGACCUCUGACCUUAAAGGACCAUUUCUACCUUCUGUAAAAGAACACCUGUUUGGGGUUGCGUGCGGCUUUCAUCCUAAGGCCGUGCGAGAGCCGUUAGCUGUCAGAACUAGUGACUCUUGCGGUCGCACUAGUGUGGAAUUCUCGGGUGUCAAGG , can you help?
[out] 0.156 R (bound/input frequency ratio)
